- assayProtocol: pharmacokinetics, plasma concentrations by LC-MS/MS
- assaySetup: human, plasma, intravenous, 10.4 mg m^−2, Cmax, mean, 24-h infusion, 10.4 mg m^−2, n=3
measurementName: Cmax (ng/mL)

> print(dat)
                                     smiles  measurementname  reportedmeasurement
1  CCc1cnn2c(NCc3ccc[n+]([O-])c3)cc(N3CCCC[C@H]3CCO)nc12             Cmax                 51.4

###

- assayProtocol: pharmacokinetics, plasma concentrations by LC-MS/MS
- assaySetup: human, plasma, intravenous, 58 mg m^−2, Cmax, mean, 2-h infusion, 58 mg m^−2, n=4
measurementName: Cmax (ng/mL)

> print(dat)
                                     smiles  reportedmeasurement
1  CCc1cnn2c(NCc3ccc[n+]([O-])c3)cc(N3CCCC[C@H]3CCO)nc12                 1460
